Assay: Inhibition of fungi maltase
PARAMETER_MEASURED: pIC50
As a rule, pIC50 stands for the negative log10 of the concentration, concentration in M.

// returns reported pIC50 for input "OC[C@@H]1[C@@H](O)[C@H](O)[C@H]2[C@H](O)[C@@H](O)CN21"
6.15

* * *

Experiment: Inhibition of Saccharomyces cerevisiae alpha-glucosidase using PNPG as substrate incubated for 10 mins by spectrophotometric method
pIC50: −log10 of the molar value.
Label 1.0 when pIC50 >= 5; otherwise 0.0.

{"COMPOUND": "OC[C@@H]1N[C@@H](c2ccc(O)cc2)[C@H](O)[C@H]1O", "ANSWER_LABEL": 0.0}
{"COMPOUND": "Cc1cc2c(c(=O)[nH]1)C(=O)O/C2=C\\c1ccc(CO)n1-c1ccc(F)cc1", "ANSWER_LABEL": 0.0}
{"COMPOUND": "OC[C@@H]1[C@@H](O)[C@H](O)[C@H]2[C@H](O)[C@@H](O)CN21 [CASUARINE]", "ANSWER_LABEL": 0.0}
{"COMPOUND": "CCC/C=C1/OC(=O)c2ccccc21 [(E)-BUTYLIDENEPHTHALIDE]", "ANSWER_LABEL": 1.0}
{"COMPOUND": "C[C@H]1O[C@H](O[C@H]2[C@H](O)[C@@H](O)[C@@H](O[C@H]3[C@H](O)[C@@H](O)C(O)O[C@@H]3CO)O[C@@H]2CO)[C@H](O)[C@@H](O)[C@@H]1N[C@H]1C=C(CO)[C@@H](O)[C@H](O)[C@H]1O (stereo partly drawn) [ACARBOSE]", "ANSWER_LABEL": 1.0}
{"COMPOUND": "O=C(O)c1cc(O)c2c(c1)C(=O)c1cccc(O)c1C2=O [RHEIN]", "ANSWER_LABEL": 0.0}
{"COMPOUND": "COc1ccc([C@@H]2N[C@@H](CO)[C@H](O)[C@H]2O)cc1O [L-RADICAMINE A]", "ANSWER_LABEL": 0.0}

// next entry
Decide: pIC50 of O=c1c(-c2ccc(O)cc2)coc2cc(O)cc(O)c12 [GENISTEIN] >= 5?
0.0

* * *

Assay: Inhibition of Saccharomyces cerevisiae alpha-glucosidase using pNPG as substrate preincubated for 15 mins followed by substrate addition and measured after 30 mins by spectrophotometric analysis
PARAMETER_MEASURED: IC50

// returns reported IC50 for input "CCCCCCCCn1cnc2cc(N)c(-c3ccccc3O)cc21"
160 nM

* * *

Assay: Competitive inhibition of Saccharomyces cerevisiae alpha-glucosidase using PNPG as substrate incubated for 10 mins by Lineweaver-Burk plot analysis
PARAMETER_MEASURED: Ki (µM)
Write down the numeric answer in µM and omit the unit.

// returns reported Ki for input "CCOC(=O)c1ccc(-n2c(/C=C3\OC(=O)c4c3cc(C)[nH]c4=O)ccc2CO)cc1"
29.9

* * *

Test: Protein binding in human plasma assessed as bound fraction at 10 uM after 6 hrs by LC-MS/MS analysis
Assay type: ADME, cell-free
Conditions: read-out: PPB (converted)
PARAMETER_MEASURED: fraction unbound at 6 h, 10 µM
Answer with a number only.

// returns reported fraction unbound at 6 h, 10 µM for input "CCOC(=O)c1ccc(-n2c(/C=C3\OC(=O)c4c3cc(C)[nH]c4=O)ccc2CO)cc1"
0.107

* * *

Assay: Drug recovery in mouse plasma at 10 uM after 6 hrs by LC-MS/MS analysis
Assay type: ADME, cell-free
Conditions: read-out: Drug recovery
PARAMETER_MEASURED: remaining at 6 h, 10 µM (%)
Write down the numeric answer in % and omit the unit.

// returns reported remaining at 6 h, 10 µM for input "CCOC(=O)c1ccc(-n2c(/C=C3\OC(=O)c4c3cc(C)[nH]c4=O)ccc2CO)cc1"
15

* * *

Assay: Inhibition of Saccharomyces cerevisiae alpha-glucosidase using PNPG as substrate incubated for 10 mins by spectrophotometric method
Let's look at some compounds and their measured IC50.
Write down the numeric answer in µM and omit the unit.

{"COMPOUND_SMILES": "CC(C)=CCc1cc(-c2oc3cc(O)c(CC=C(C)C)c(O)c3c(=O)c2O)cc(O)c1O", "IC50 / µM": 85.9}
{"COMPOUND_SMILES": "CCOC(=O)c1ccc(-n2c(/C=C3\\OC(=O)c4c3cc(C)[nH]c4=O)ccc2CO)cc1", "IC50 / µM": 0.56}
{"COMPOUND_SMILES": "O=C1c2cccc(O)c2C(=O)c2c(O)cc(CO)cc21", "IC50 / µM": 26.4}
{"COMPOUND_SMILES": "O=c1c2cc(O)c(O)cc2oc2cc(O)cc(O)c12", "IC50 / µM": 62.3}
{"COMPOUND_SMILES": "Cc1cc2c(c(=O)[nH]1)C(=O)O/C2=C\\c1ccc(CO)n1-c1ccccc1", "IC50 / µM": 27.4}

// returns reported IC50 for input "Cc1cc2c(c(=O)[nH]1)C(=O)O/C2=C\c1ccc(CO)n1Cc1ccccc1"
20.8

// returns reported IC50 for input "Cc1ccc(S(=O)(=O)Nc2cccc(C(=O)/C=C/c3ccc(O)cc3)c2)cc1"
82.7

* * *

Experiment: Inhibition of Saccharomyces cerevisiae alpha-glucosidase assessed as reduction in p-nitrophenol liberation using PNPG as substrate preincubated with substrate for 5 mins followed by incubation with enzyme for 5 mins
PARAMETER_MEASURED: IC50 (µM)
Write down the numeric answer in µM and omit the unit.

// returns reported IC50 for input O=c1c(-c2ccc(O)cc2)coc2cc(O)cc(O)c12 [GENISTEIN]
7

* * *

Assay: Non-competitive inhibition of rat intestinal alpha-glucosidase
Type: tissue-based, Intestine
PARAMETER_MEASURED: Ki (µM)
Write down the numeric answer in µM and omit the unit.

// returns reported Ki for input CCC/C=C1/OC(=O)c2ccccc21 [(E)-BUTYLIDENEPHTHALIDE]
4.86

* * *

Let's look at some molecules and their measured pIC50.
Target: Alpha-mannosidase (Canavalia ensiformis, UniProt C0HJB3)
Sequence (C0HJB3 whole entry): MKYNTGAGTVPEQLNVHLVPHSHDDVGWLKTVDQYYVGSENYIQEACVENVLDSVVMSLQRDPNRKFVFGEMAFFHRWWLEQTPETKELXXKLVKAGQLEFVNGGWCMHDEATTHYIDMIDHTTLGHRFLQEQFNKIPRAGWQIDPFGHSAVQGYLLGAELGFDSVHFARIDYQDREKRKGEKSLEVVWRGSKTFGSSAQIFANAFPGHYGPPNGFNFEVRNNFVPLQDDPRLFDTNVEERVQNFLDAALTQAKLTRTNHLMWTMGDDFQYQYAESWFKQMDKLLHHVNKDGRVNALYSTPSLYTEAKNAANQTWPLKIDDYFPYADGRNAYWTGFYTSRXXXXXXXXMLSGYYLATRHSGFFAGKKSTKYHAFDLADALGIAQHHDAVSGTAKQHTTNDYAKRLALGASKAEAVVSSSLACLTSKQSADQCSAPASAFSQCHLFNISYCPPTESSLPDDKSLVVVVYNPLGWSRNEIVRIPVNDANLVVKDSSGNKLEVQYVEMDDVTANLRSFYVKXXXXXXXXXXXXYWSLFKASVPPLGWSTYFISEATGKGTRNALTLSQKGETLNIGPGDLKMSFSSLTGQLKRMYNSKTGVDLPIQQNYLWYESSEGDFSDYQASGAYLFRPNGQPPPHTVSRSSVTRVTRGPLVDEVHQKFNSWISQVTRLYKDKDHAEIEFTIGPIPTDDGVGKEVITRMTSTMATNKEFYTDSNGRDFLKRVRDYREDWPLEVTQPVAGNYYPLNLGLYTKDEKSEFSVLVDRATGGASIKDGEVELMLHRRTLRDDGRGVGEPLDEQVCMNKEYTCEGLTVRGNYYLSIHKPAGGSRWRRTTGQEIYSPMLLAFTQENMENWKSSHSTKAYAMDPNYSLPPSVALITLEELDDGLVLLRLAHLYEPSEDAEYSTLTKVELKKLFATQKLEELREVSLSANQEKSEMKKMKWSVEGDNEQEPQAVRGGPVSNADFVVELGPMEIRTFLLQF
As a rule, pIC50 stands for the negative log10 of the concentration, concentration in M.

Worked set:
{"MOLECULE": "O=C1Nc2cc(Cl)ccc2/C1=C/c1ccccc1[N+](=O)[O-]", "ASSAYED_TARGET": "Alpha-mannosidase (Canavalia ensiformis, UniProt C0HJB3)", "pIC50": 4.55}
{"MOLECULE": "OCc1ccc2n1C[C@@H](c1ccc(O)cc1)OC2", "ASSAYED_TARGET": "Alpha-mannosidase (Canavalia ensiformis, UniProt C0HJB3)", "pIC50": 4.85}
{"MOLECULE": "Cc1cc2c(c(=O)[nH]1)C(=O)O/C2=C\\c1ccc(CO)n1-c1ccccc1", "ASSAYED_TARGET": "Alpha-mannosidase (Canavalia ensiformis, UniProt C0HJB3)", "pIC50": 4.21}
{"MOLECULE": "CCC/C=C1/OC(=O)c2ccccc21 [(E)-BUTYLIDENEPHTHALIDE]", "ASSAYED_TARGET": "Alpha-mannosidase (Canavalia ensiformis, UniProt C0HJB3)", "pIC50": 4.39}
{"MOLECULE": "OC[C@@H]1N[C@@H](c2ccc(O)cc2)[C@H](O)[C@H]1O", "ASSAYED_TARGET": "Alpha-mannosidase (Canavalia ensiformis, UniProt C0HJB3)", "pIC50": 4.55}
{"MOLECULE": "OC[C@@H]1[C@@H](O)[C@H](O)[C@H]2[C@H](O)[C@@H](O)CN21 [CASUARINE]", "ASSAYED_TARGET": "Alpha-mannosidase (Canavalia ensiformis, UniProt C0HJB3)", "pIC50": 4.29}

// returns reported pIC50 for input "CCOC(=O)c1ccc(-n2c(/C=C3\OC(=O)c4c3cc(C)[nH]c4=O)ccc2CO)cc1"
4.39
